Target: PfCRT Dd2 (Plasmodium falciparum, UniProt Q9N623, A220S/I356T/K76T/M74I/N326S/N75E/Q271E/R371I)
Test: Equilibrium dialysis binding, PfCRT variant in nanodiscs
Details: Kd, binding at pH 7.5, equilibrium dialysis, pH 7.5
Reported Kd by item:
Quick note: give the figure in nM, leave out the unit.

| COMPOUND | Kd (nM) |
| --- | --- |
| Clc1ccc2c(N3CCN(CCCN4CCN(c5ccnc6cc(Cl)ccc56)CC4)CC3)ccnc2c1 | 220 |

Below: the item to evaluate.
Task: Please look up its Kd: CCN(CC)CCCC(C)Nc1ccnc2cc(Cl)ccc12 (centres unmarked)
Result: 310
